target-entity: HIV Env of isolate 3103.v3.c10 (clade ACD) (HIV)
measurement-description: cell-based or functional assay
Each record here notes measured IC80 (µg/ml) with constrains.

- binder: "ePGDM5 (antibody, V domains shown) VH: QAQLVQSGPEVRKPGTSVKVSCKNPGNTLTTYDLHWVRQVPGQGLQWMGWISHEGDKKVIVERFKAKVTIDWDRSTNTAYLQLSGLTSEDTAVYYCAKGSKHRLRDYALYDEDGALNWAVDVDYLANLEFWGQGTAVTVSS VL: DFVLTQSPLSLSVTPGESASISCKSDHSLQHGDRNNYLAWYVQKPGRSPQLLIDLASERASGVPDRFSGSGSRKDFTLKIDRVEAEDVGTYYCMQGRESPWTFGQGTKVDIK"
  IC80 (µg/ml) with constrains: "0.254 µg/mL"

In plain terms, ePGDM13 (antibody, V domains shown) VH: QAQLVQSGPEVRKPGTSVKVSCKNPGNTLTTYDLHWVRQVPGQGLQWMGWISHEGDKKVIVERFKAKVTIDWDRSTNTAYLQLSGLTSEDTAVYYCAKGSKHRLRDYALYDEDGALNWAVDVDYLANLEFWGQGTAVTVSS VL: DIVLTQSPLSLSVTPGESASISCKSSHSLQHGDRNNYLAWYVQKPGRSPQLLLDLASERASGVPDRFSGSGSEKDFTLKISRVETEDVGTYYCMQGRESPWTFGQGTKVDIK has a documented IC80 (µg/ml) with constrains of 0.36 µg/mL

In plain terms, ePGDM9 (antibody, V domains shown) VH: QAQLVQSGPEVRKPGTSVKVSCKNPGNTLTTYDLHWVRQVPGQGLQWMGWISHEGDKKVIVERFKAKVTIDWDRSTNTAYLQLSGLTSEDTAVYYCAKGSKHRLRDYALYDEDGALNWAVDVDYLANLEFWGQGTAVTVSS VL: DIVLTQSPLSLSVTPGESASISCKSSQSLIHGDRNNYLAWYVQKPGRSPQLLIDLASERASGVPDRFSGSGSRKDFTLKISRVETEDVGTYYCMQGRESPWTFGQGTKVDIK has a documented IC80 (µg/ml) with constrains of 0.29 µg/mL
